Molecular target: α4β3γ2 GABAA/BzR (Homo sapiens, UniProt P18507+P48169)
Construct: expressed in transfected cells; host or cells: LTK cells (given for XLi-093 only)
Test: biochemical
Type: binding
Settings: read-out: Ki α4
pKi: −log10 of the molar value.

{"MOLECULE": "CCC(OC(=O)c1ncn2c1C1CCCN1C(=O)c1cc(F)ccc1-2)C(F)(F)F (mixture of isomers)", "TGT": "α4β3γ2 GABAA/BzR (Homo sapiens, UniProt P18507+P48169)", "pKi": 5.70}
{"MOLECULE": "O=C(OCC(F)(F)F)c1cc2c(cn1)[nH]c1ccccc12", "TGT": "α4β3γ2 GABAA/BzR (Homo sapiens, UniProt P18507+P48169)", "pKi": 6.30}
{"MOLECULE": "O=C(OCC(F)(F)F)c1cc2c(cn1)[nH]c1ccc(-c3cccs3)cc12", "TGT": "α4β3γ2 GABAA/BzR (Homo sapiens, UniProt P18507+P48169)", "pKi": 5.70}
{"MOLECULE": "COc1ccc2c(c1)C(=O)N1CCC1c1c(C(=O)OC(C)(C)C)ncn1-2 (stereo not drawn)", "TGT": "α4β3γ2 GABAA/BzR (Homo sapiens, UniProt P18507+P48169)", "pKi": 9.82}
{"MOLECULE": "COc1ccc2c(c1)C(=O)N1CCCC1c1c(C(=O)OCC(C)C)ncn1-2 (stereo not drawn)", "TGT": "α4β3γ2 GABAA/BzR (Homo sapiens, UniProt P18507+P48169)", "pKi": 6.40}
{"MOLECULE": "CC[C@H](C)OC(=O)c1ncn2c1[C@@H]1CCCN1C(=O)c1cc(F)ccc1-2 [CM-B44 (ss)]", "TGT": "α4β3γ2 GABAA/BzR (Homo sapiens, UniProt P18507+P48169)", "pKi": 6.42}
{"MOLECULE": "CCOC(=O)c1ncn2c1C1CCN1C(=O)c1cc(OC)ccc1-2 (stereo not drawn)", "TGT": "α4β3γ2 GABAA/BzR (Homo sapiens, UniProt P18507+P48169)", "pKi": 9.48}
{"MOLECULE": "COc1ccc2c(c1)C(=O)N1CCCC1c1c(C(=O)OC(C)C)ncn1-2 (stereo not drawn) [CM-E09b]", "TGT": "α4β3γ2 GABAA/BzR (Homo sapiens, UniProt P18507+P48169)", "pKi": 7.26}
{"MOLECULE": "CCC(C)OC(=O)c1ncn2c1C1CCCN1C(=O)c1cc(F)ccc1-2 (stereo not drawn)", "TGT": "α4β3γ2 GABAA/BzR (Homo sapiens, UniProt P18507+P48169)", "pKi": 6.42}

----------
Target: α5β3γ2 GABAA/BzR (Homo sapiens, UniProt P18507+P31644)
Assay: Competition binding to HEK cell membranes, α5β3γ2
Set-up: expressed in transfected cells
Settings: read-out: Ki α5

{"COMPOUND": "CC(C)(C)OC(=O)c1cc2c(cn1)[nH]c1ccc(-c3ccco3)cc12 [WYS13]", "UNIT OF MEASUREMENT": "nM", "Ki": 163}
{"COMPOUND": "CC(C)OC(=O)c1ncn2c1[C@@H]1CCCN1C(=O)c1cc(Br)ccc1-2 [MMB-II-90]", "UNIT OF MEASUREMENT": "nM", "Ki": 0.25}
{"COMPOUND": "CC(C)c1nc(-c2ncn3c2CN(C)C(=O)c2c(Cl)cccc2-3)no1 [FG8205, reference compound]", "UNIT OF MEASUREMENT": "nM", "Ki": 1.54}
{"COMPOUND": "CCC(OC(=O)c1ncn2c1C1CCCN1C(=O)c1cc(Cl)ccc1-2)C(F)(F)F (mixture of isomers) [CM-B45]", "UNIT OF MEASUREMENT": "nM", "Ki": 15}
